# assayed target: T1, HDM2NTD (N-terminal domain of HDM2, amino acids 1 to 125 of NP-002383) (human, UniProt Q00987 1-125)
# T1 construct: range 1-125
# T1 sequence (Q00987 1-125 limits assumed): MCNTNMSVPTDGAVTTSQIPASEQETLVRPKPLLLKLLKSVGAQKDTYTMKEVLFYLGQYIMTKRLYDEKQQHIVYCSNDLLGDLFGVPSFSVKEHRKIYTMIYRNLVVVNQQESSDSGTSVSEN
# assay explanation: ITC, 0.5 mM p53LZ2 injected into 0.03 mM HDM2NTD, PBS pH 7.4, 18 °C
value kind: pKd
Give bare numbers, as −log10 of the molar value.

Fill in the blank: the reported pKd of RMKQLEDKVGELLFSNYWLELEVARLKKLV (designed binder) [leucine zipper variant p53LZ2] is ____.
7.75

Reference source for all entries: patent US20150094271A1
